Source: ChEMBL document CHEMBL5634076

# Target or system: Multidrug efflux pump subunit AcrB (Escherichia coli (strain K12))
# Assay summary: Inhibition of AcrB in Escherichia coli BW25113 assessed as potentiation of pyridomycin-induced antibacterial activity incubated for 20 hrs by resazurin microtitre assay; further: test concentration or dose not given here
Readout label: EC90 (µM)
# number only, unit µM dropped from output

Inquiry: API: value(readout=EC90, system=Multidrug efflux pump subunit AcrB (Escherichia coli (strain K12))) for record CCOC(=O)c1cnc(N2CCNCC2)c(Cl)c1
Reply text: 12

Inquiry: API: value(readout=EC90, system=Multidrug efflux pump subunit AcrB (Escherichia coli (strain K12))) for record NCCc1ccc(NC(=O)c2cnc(N3CCNCC3)c(Cl)c2)cc1
Reply text: 187

Inquiry: API: value(readout=EC90, system=Multidrug efflux pump subunit AcrB (Escherichia coli (strain K12))) for record NCc1nc(-c2cnc(N3CCNCC3)c(Cl)c2)no1
Reply text: 81

Inquiry: API: value(readout=EC90, system=Multidrug efflux pump subunit AcrB (Escherichia coli (strain K12))) for record NCCc1ccc(C(=O)Nc2cnc(N3CCNCC3)c(Cl)c2)cc1
Reply text: 47

Inquiry: API: value(readout=EC90, system=Multidrug efflux pump subunit AcrB (Escherichia coli (strain K12))) for record NCc1cccc(OCc2cnc(N3CCNCC3)c(Cl)c2)c1
Reply text: 23

Inquiry: API: value(readout=EC90, system=Multidrug efflux pump subunit AcrB (Escherichia coli (strain K12))) for record Cl.Cl.NCc1cccc(OC(=O)c2cnc(N3CCNCC3)c(Cl)c2)c1
Reply text: 0.6

Inquiry: API: value(readout=EC90, system=Multidrug efflux pump subunit AcrB (Escherichia coli (strain K12))) for record O=C(OCc1ccccc1)c1cnc(N2CCNCC2)c(Cl)c1
Reply text: 156

Inquiry: API: value(readout=EC90, system=Multidrug efflux pump subunit AcrB (Escherichia coli (strain K12))) for record Cc1nc(-c2cnc(N3CCNCC3)c(Cl)c2)no1
Reply text: 78

Inquiry: API: value(readout=EC90, system=Multidrug efflux pump subunit AcrB (Escherichia coli (strain K12))) for record COC(=O)c1cnc(N2CCNCC2)c(Cl)c1
Reply text: 20

Inquiry: API: value(readout=EC90, system=Multidrug efflux pump subunit AcrB (Escherichia coli (strain K12))) for record FC(F)(F)c1cc(I)cnc1N1CCNCC1
Reply text: 94

Inquiry: API: value(readout=EC90, system=Multidrug efflux pump subunit AcrB (Escherichia coli (strain K12))) for record O=C(OCCc1ccccc1)c1cnc(N2CCNCC2)c(Cl)c1
Reply text: 62

Inquiry: API: value(readout=EC90, system=Multidrug efflux pump subunit AcrB (Escherichia coli (strain K12))) for record NCCCc1nc(-c2cnc(N3CCNCC3)c(Cl)c2)no1
Reply text: 21

Inquiry: API: value(readout=EC90, system=Multidrug efflux pump subunit AcrB (Escherichia coli (strain K12))) for record NC1CCN(c2ncc(C(F)(F)F)cc2Cl)CC1
Reply text: 500

Inquiry: API: value(readout=EC90, system=Multidrug efflux pump subunit AcrB (Escherichia coli (strain K12))) for record NCCc1ccc(OC(=O)c2cnc(N3CCNCC3)c(Cl)c2)cc1
Reply text: 3

====

# Tested on: Escherichia coli
# Assay summary: Antibacterial activity against Escherichia coli BW25113 assessed as reduction in bacterial growth incubated for 20 hrs by resazurin microtitre assay
# Assay type: functional
Readout label: MIC95 (µg/mL)
# number only, unit µg/mL dropped from output

Inquiry: Can you share its MIC95? I mean this compound: O=C(N[C@H](CO)[C@H](O)c1ccc([N+](=O)[O-])cc1)C(Cl)Cl
Reply text: 8

Inquiry: Can you share its MIC95? I mean this compound: CO[C@@H]1[C@@H](OC(N)=O)[C@@H](O)[C@H](Oc2ccc3c(O)c(NC(=O)c4ccc(O)c(CC=C(C)C)c4)c(=O)oc3c2C)OC1(C)C
Reply text: 80

Inquiry: Can you share its MIC95? I mean this compound: O=C(O)c1cn(C2CC2)c2cc(N3CCNCC3)c(F)cc2c1=O
Reply text: 0.01

====

# Test system: Escherichia coli
# Assay summary: Selectivity ratio of EC90 for inhibition of AcrB Asp951Asn mutant in Escherichia coli BW25113 to inhibition of AcrB in Escherichia coli BW25113 incubated for 20 hrs by resazurin microtitre assay
Quick rule for you: Ratio at 8 or higher means Satisfied, lower means Not satisfied.

Inquiry: Check if Ratio >= 8 (inclusive). Item: Cl.Cl.NCc1cccc(OC(=O)c2cnc(N3CCNCC3)c(Cl)c2)c1
Reply text: Satisfied

Inquiry: Check if Ratio >= 8 (inclusive). Item: NCc1nc(-c2cnc(N3CCNCC3)c(Cl)c2)no1
Reply text: Not satisfied

Inquiry: Check if Ratio >= 8 (inclusive). Item: O=C(Oc1cccc(CO)c1)c1cnc(N2CCNCC2)c(Cl)c1
Reply text: Not satisfied

Inquiry: Check if Ratio >= 8 (inclusive). Item: NCCCc1nc(-c2cnc(N3CCNCC3)c(Cl)c2)no1
Reply text: Satisfied

Inquiry: Check if Ratio >= 8 (inclusive). Item: NCc1cccc(COc2cnc(N3CCNCC3)c(Cl)c2)c1
Reply text: Satisfied

Inquiry: Check if Ratio >= 8 (inclusive). Item: Cl.Cl.NCCc1nc(-c2cnc(N3CCNCC3)c(Cl)c2)no1
Reply text: Satisfied

Inquiry: Check if Ratio >= 8 (inclusive). Item: NCc1cccc(OCc2cnc(N3CCNCC3)c(Cl)c2)c1
Reply text: Satisfied

====

# Test system: Escherichia coli
# Assay summary: Selectivity ratio of EC90 for inhibition of AcrB Glu947Gln mutant in Escherichia coli BW25113 to inhibition of AcrB in Escherichia coli BW25113 incubated for 20 hrs by resazurin microtitre assay
Give Ratio for every item shown.

Inquiry: Can you share its Ratio? I mean this compound: Cl.Cl.NCc1cccc(OC(=O)c2cnc(N3CCNCC3)c(Cl)c2)c1
Reply text: > 103

Inquiry: Can you share its Ratio? I mean this compound: NCc1nc(-c2cnc(N3CCNCC3)c(Cl)c2)no1
Reply text: 3

Inquiry: Can you share its Ratio? I mean this compound: NCCCc1nc(-c2cnc(N3CCNCC3)c(Cl)c2)no1
Reply text: > 12

Inquiry: Can you share its Ratio? I mean this compound: Cl.Cl.NCCc1nc(-c2cnc(N3CCNCC3)c(Cl)c2)no1
Reply text: > 31

Inquiry: Can you share its Ratio? I mean this compound: NCCc1ccc(OC(=O)c2cnc(N3CCNCC3)c(Cl)c2)cc1
Reply text: 3

Inquiry: Can you share its Ratio? I mean this compound: NCc1cccc(OCc2cnc(N3CCNCC3)c(Cl)c2)c1
Reply text: > 11

Inquiry: Can you share its Ratio? I mean this compound: O=C(Oc1cccc(CO)c1)c1cnc(N2CCNCC2)c(Cl)c1
Reply text: 2.4

Inquiry: Can you share its Ratio? I mean this compound: NCc1cccc(COc2cnc(N3CCNCC3)c(Cl)c2)c1
Reply text: > 25

====

# Assay summary: Solubility of compound in PBS at pH 7.4 incubated for 24 hrs by LC-MS/MS analysis
# Format: physicochemical
Give solubility at 24 h for every item shown.

Inquiry: Can you share its solubility at 24 h? I mean this molecule: Cl.Cl.NCCc1nc(-c2cnc(N3CCNCC3)c(Cl)c2)no1
Reply text: > 200 µM

Inquiry: Can you share its solubility at 24 h? I mean this molecule: Clc1cc(I)cnc1N1CCNCC1
Reply text: > 200 µM

Inquiry: Can you share its solubility at 24 h? I mean this molecule: Cl.Cl.NCc1cccc(OC(=O)c2cnc(N3CCNCC3)c(Cl)c2)c1
Reply text: 180 µM

====

# Tested on: Escherichia coli
# Assay summary: Inhibition of AcrB Glu947Gln mutant in Escherichia coli BW25113 assessed as potentiation of pyridomycin-induced antibacterial activity incubated for 20 hrs by resazurin microtitre assay; further: test concentration or dose not given here
Readout label: EC90

Inquiry: Can you share its EC90? I mean this compound: NCc1nc(-c2cnc(N3CCNCC3)c(Cl)c2)no1
Reply text: 250 µM

Inquiry: Can you share its EC90? I mean this compound: NCCCc1nc(-c2cnc(N3CCNCC3)c(Cl)c2)no1
Reply text: > 250 µM

Inquiry: Can you share its EC90? I mean this compound: NCc1cccc(OCc2cnc(N3CCNCC3)c(Cl)c2)c1
Reply text: > 250 µM

Inquiry: Can you share its EC90? I mean this compound: NCCc1ccc(OC(=O)c2cnc(N3CCNCC3)c(Cl)c2)cc1
Reply text: 8 µM

Inquiry: Can you share its EC90? I mean this compound: Cl.Cl.NCCc1nc(-c2cnc(N3CCNCC3)c(Cl)c2)no1
Reply text: > 250 µM

Inquiry: Can you share its EC90? I mean this compound: NCc1cccc(COc2cnc(N3CCNCC3)c(Cl)c2)c1
Reply text: > 250 µM

Inquiry: Can you share its EC90? I mean this compound: O=C(Oc1cccc(CO)c1)c1cnc(N2CCNCC2)c(Cl)c1
Reply text: 62 µM

Inquiry: Can you share its EC90? I mean this compound: Cl.Cl.NCc1cccc(OC(=O)c2cnc(N3CCNCC3)c(Cl)c2)c1
Reply text: > 62 µM
